# reported self-cleavage; entries follow
B1: CPEB3 Ribozyme (parent)
chain: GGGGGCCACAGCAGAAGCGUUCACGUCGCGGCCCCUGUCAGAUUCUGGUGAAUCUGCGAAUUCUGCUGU

Variants of: B1
test-description: self-cleavage, relative activity (ratio to wild type); higher = more cleavage; co-transcriptional
property-name: self-cleavage

GGGGGCCACAGCAGAAGCGUUAACGUCGCGGCCCCUGUCAGAUUCUGGAGAAUCUGCGAAUUCUGCUGU [C22A U49A]
0.195
GGGGGCCACAGCAGAAGCGUUCACGUCGCAGCUCCUGUCAGAUUCUGGUGAAUCUGCGAAUUCUGCUGU [G30A C33U]
0.691
GGGGGCCACAGCAGAAGCGUUCACGUCGCGGCCCCUCUCAGACUCUGGUGAAUCUGCGAAUUCUGCUGU [G37C U43C]
0.203
